- Test System: DHODH (Homo sapiens (Human))
- Sequence (Q02127 whole entry): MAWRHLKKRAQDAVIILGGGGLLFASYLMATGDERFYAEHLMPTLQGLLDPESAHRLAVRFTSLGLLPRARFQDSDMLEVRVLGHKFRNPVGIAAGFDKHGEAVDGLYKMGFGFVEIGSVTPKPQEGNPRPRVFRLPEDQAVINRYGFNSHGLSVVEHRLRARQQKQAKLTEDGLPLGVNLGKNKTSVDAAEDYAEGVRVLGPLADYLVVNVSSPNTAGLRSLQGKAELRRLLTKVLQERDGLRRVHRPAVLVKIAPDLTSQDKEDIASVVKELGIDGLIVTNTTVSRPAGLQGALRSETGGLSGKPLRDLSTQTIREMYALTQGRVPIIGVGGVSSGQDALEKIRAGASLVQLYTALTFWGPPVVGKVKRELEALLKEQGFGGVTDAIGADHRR
Just a reminder that ties go to label 0: only IC50 strictly below 900 nM counts as label 1.

- Molecule: "O=C(O)c1cccc2[nH]c(-c3ccc(Oc4ccccc4)cc3)nc12 [I10]"
  Group Label: "label 0"
- Molecule: "Cc1cc(C(=O)O)c2[nH]c(-c3ccc(-n4c(C)ccc4C)cc3)nc2c1 [I121]"
  Group Label: "label 1"
- Molecule: "Cc1cc(C(=O)O)c2nc(-c3ccc(Oc4ccccn4)cc3)[nH]c2c1 [I71]"
  Group Label: "label 0"
- Molecule: "Cc1cc(C(=O)O)c2nc(-c3ccc(-c4cccc(O)c4)cc3)[nH]c2c1 [I116]"
  Group Label: "label 1"
- Molecule: "Cc1cc(C(=O)O)c2[nH]c(-c3ccc(Oc4ccccc4)cc3)nc2c1 [I67]"
  Group Label: "label 0"
- Molecule: "O=C(O)c1cc(Br)cc2[nH]c(-c3ccc(-c4ccccc4)cc3)nc12 [I6]"
  Group Label: "label 1"
- Molecule: "O=C(O)c1cccc2nc(-c3c(F)c(F)c(-c4cccs4)c(F)c3F)[nH]c12 [I124]"
  Group Label: "label 1"
- Molecule: "Cc1cc(C(=O)O)c2nc(-c3c(F)c(F)c(-c4ccccc4)c(F)c3F)n(C)c2c1 [I113]"
  Group Label: "label 1"
- Molecule: "O=C(O)c1cccc2[nH]c(-c3ccc(-c4cccc(OCc5ccccc5)c4)cc3)nc12 [I118]"
  Group Label: "label 0"

Hello, the source for this data is patent US9006454B2, in case you need it.
